read-out: Interleukin-1 alpha (IL1a), IL1A (gene 3552); assay: BSK_BE3C_IL1a: BioMAP Diversity Plus: BE3C Assay for Interleukin-1 alpha (IL1a) Biomarker Activity (AID 2283016); settings: primary human bronchial epithelial cells; actives raise or lower the signal
Activity calls are given as the source filed them. How the source made its calls: active means hit-call score of the fitted dose curve at least 0.9, where 1 is the maximum; inactive means score below 0.9.
Mark one answer only. Choices: active, inactive

O=Nc1ccc(O)cc1 :: inactive
C=CC=CC=CCCCCC :: inactive

Inquiry: For CCCCCCCCc1ccc(Nc2ccc(CCCCCCCC)cc2)cc1 , what call appears in the results of this test?
Reply text: inactive

Inquiry: For C=C[Si](OC(C)=O)(OC(C)=O)OC(C)=O , what call appears in the results of this test?
Reply text: inactive

Inquiry: For CC1OC1C1CCC2(C)OC2C1 (stereo unspecified) , what call appears in the results of this test?
Reply text: inactive

Inquiry: For COc1ccc2nc(N)sc2c1 , what call appears in the results of this test?
Reply text: inactive

Inquiry: For c1ccc2c(c1)ccc1cc3c(ccc4ccccc43)cc12 , what call appears in the results of this test?
Reply text: inactive

----------
Read-out: Interleukin-1 alpha (IL1a), IL1A (gene 3552)
Experiment: BSK_LPS_IL1a: BioMAP Diversity Plus: LPS Assay for Interleukin-1 alpha (IL1a) Biomarker Activity (AID 2283080)
Settings: primary human HUVEC with PBMC; actives raise or lower the signal
Experimental: BSK_LPS is a cell-based, multiplexed-readout assay that uses umbilical vein endothelium and peripheral blood mononuclear cells, a human vascular primary cell co-culture, with measurements taken at 24 hours after chemical dosing in a 96-well plate.BSK_LPS_IL1a is an assay component measured in the BSK_LPS assay. It measures IL-a antibody related to regulation of gene expression using ELISA technology.Data from the assay component BSK_LPS_IL1a was analyzed into 1 assay endpoint. […]
Calls of active or inactive are those of the source. The calls were made as follows: active = hit-call score of the fitted dose curve at least 0.9, where 1 is the maximum; inactive = score below 0.9.
Mark one answer only. Choices: yes (active), no (inactive)

Example results:
CCCCC(CC)COC(=O)c1ccccc1O (configuration not stated) :: no
C=CCOCC(O)CCl (configuration not stated) :: no

Inquiry: For CCCCCCCCc1ccc(Nc2ccc(CCCCCCCC)cc2)cc1 , what call appears in the results of this test?
Reply text: no

Inquiry: For c1ccc2c(c1)ccc1cc3c(ccc4ccccc43)cc12 , what call appears in the results of this test?
Reply text: no

----------
assay: ATG_Ets_CIS: Attagene CIS-FACTORIAL HepG2 Assay for human Erythroblast Transformation Specific (ETS) (AID 2282941); details: HepG2 ETS cis-reporter transcription, actives raise or lower the signal
Calls of active or inactive are those of the source. Rule for the calls: active = hit-call score of the fitted dose curve at least 0.9, where 1 is the maximum; inactive = score below 0.9.
RESULT_TYPE: outcome

CC(=O)[C@@]1(O)CC[C@H]2[C@@H]3C[C@H](C)C4=CC(=O)C=C[C@]4(C)[C@@]3(F)[C@@H](O)C[C@@]21C :: inactive
C=C[Si](C)(C)O[Si](C)(C)C=C :: inactive
CCCNC(=O)NS(=O)(=O)c1ccc(Cl)cc1 :: inactive
CCCCCCCCCCOS(=O)(=O)O :: inactive
CC=CCO :: inactive

Inquiry: I'd like to know its outcome. The compound in question is CCOC(=O)Cc1cccc2ccccc12
Reply text: inactive

Inquiry: I'd like to know its outcome. The compound in question is Cc1cc(C)c(C)c(C)c1
Reply text: inactive

----------
experiment: ATG_Oct_MLP_CIS: Attagene CIS-FACTORIAL HepG2 Assay for human Octamer-Binding Transcription Factor (Oct) (AID 2282993); details: HepG2 Attagene cis-factorial Oct reporter, mRNA; actives raise or lower the signal
Active and inactive are the calls of the source. How the source made its calls: active means hit-call score of the fitted dose curve at least 0.9, where 1 is the maximum; inactive means score below 0.9.
Mark one answer only. Choices: 1 (active), 0 (inactive)

Example results:
Cc1ccc(C(C)c2ccc(C)c(C)c2)cc1C :: 1
Nc1ccc(N=Nc2ccccc2)c(N)n1 :: 1

Kindly review the next molecule as well.
Inquiry: For CC(C)=CC1CC(C)CCO1 (centres undefined) , what call appears in the results of this test?
Reply text: 0

----------
read-out: Interleukin 2 (IL2), IL2 (gene 3558); experiment: BSK_BT_xIL2: BioMAP Diversity Plus: BT Assay for Interleukin 2 (IL2) Biomarker Activity (AID 2284245); settings: primary human B cells with PBMC
Active and inactive are the calls of the source. How the source made its calls: active means hit-call score of the fitted dose curve at least 0.9, where 1 is the maximum; inactive means score below 0.9.
Mark one answer only. Choices: label 1 (active), label 0 (inactive)

Example results:
COc1ccc2nc(N)sc2c1 :: label 0
CCCCC/C=C\C/C=C\CCCCCCCC(=O)OC :: label 1
C=CC(=O)OCC(Br)CBr (stereo not drawn) :: label 1
C=CCOc1c(Br)cc(Br)cc1Br :: label 0
CCCCNc1ccc(NCCCC)c2c1C(=O)c1ccccc1C2=O :: label 0

Inquiry: For CCOc1nc(F)cc2nc(S(=O)(=O)Nc3c(Cl)cccc3C(=O)OC)nn12 , what call appears in the results of this test?
Reply text: label 0

Inquiry: For C=CC=CC=CCCCCC , what call appears in the results of this test?
Reply text: label 0

Inquiry: For c1ccc2c(c1)ccc1ncccc12 , what call appears in the results of this test?
Reply text: label 0

Inquiry: For N#[N+]c1ccc2c(S(=O)(=O)[O-])cccc2c1O , what call appears in the results of this test?
Reply text: label 0

Inquiry: For CCO[Si](CCCN=C=O)(OCC)OCC , what call appears in the results of this test?
Reply text: label 0

Inquiry: For S=C(NC1CCCCC1)NC1CCCCC1 , what call appears in the results of this test?
Reply text: label 1

Inquiry: For CC1OC1C1CCC2(C)OC2C1 (stereo not drawn) , what call appears in the results of this test?
Reply text: label 0

Inquiry: For CCCCCCCCc1ccc(Nc2ccc(CCCCCCCC)cc2)cc1 , what call appears in the results of this test?
Reply text: label 0

----------
target: human Peroxisome Proliferator-activated Receptor alpha (PPARa), PPARA (gene 5465) (UniProt Q07869); assay: ATG_PPARa_TRANS: Attagene TRANS-FACTORIAL HepG2 Assay for human Peroxisome Proliferator-activated Receptor alpha (PPARa) (AID 2283001)
Sequence (Q07869 whole entry, looked up): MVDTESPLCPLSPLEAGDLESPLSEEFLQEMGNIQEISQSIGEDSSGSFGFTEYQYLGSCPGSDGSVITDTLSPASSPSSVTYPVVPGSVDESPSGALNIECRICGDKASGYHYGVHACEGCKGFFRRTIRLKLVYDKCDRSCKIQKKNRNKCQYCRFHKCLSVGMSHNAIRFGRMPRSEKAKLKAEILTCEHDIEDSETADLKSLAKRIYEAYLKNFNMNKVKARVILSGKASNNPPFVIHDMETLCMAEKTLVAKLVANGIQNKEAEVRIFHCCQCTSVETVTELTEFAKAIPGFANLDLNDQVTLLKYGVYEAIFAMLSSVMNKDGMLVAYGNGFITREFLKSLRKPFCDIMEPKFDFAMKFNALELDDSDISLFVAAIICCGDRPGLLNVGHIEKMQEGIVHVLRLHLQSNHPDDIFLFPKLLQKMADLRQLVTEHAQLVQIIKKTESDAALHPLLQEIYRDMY
Results filed as inconclusive are left out. Calls of active or inactive are those of the source. The calls were made as follows: active = hit-call score of the fitted dose curve at least 0.9, where 1 is the maximum; inconclusive = response in the unintended direction; inactive = score below 0.9.
Mark one answer only. Choices: yes for active, no for inactive

Example results:
CCCCCCCCCCCCCCCC[n+]1ccccc1 :: no
[Cl][Nd]([Cl])[Cl] :: no

Inquiry: For Cc1ccccc1C , what call appears in the results of this test?
Reply text: no

Inquiry: For COc1cc(C)ccc1C(C)C , what call appears in the results of this test?
Reply text: no

Inquiry: For O=C1CCCCCCCCCCC(=O)OCCO1 , what call appears in the results of this test?
Reply text: no

----------
target: CCAAT/enhancer-binding protein beta (Homo sapiens) (UniProt P17676); test: ATG_C_EBP_CIS: Attagene CIS-FACTORIAL HepG2 Assay for human CCAAT/Enhancer Binding Protein (C/EBP) beta (AID 2282927); conditions: HepG2 Attagene cis-factorial transcription factor reporter; actives raise or lower the signal
Sequence (P17676 whole entry, looked up): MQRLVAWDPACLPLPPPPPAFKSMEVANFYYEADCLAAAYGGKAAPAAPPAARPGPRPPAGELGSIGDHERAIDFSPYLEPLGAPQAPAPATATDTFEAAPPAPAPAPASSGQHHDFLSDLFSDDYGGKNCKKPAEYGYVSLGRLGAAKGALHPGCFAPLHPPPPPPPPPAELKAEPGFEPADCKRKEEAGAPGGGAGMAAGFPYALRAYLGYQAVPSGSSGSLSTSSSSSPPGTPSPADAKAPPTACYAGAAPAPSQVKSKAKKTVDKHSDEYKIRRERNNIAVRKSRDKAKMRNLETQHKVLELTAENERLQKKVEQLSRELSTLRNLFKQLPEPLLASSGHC
Activity calls are given as the source filed them. How the source made its calls: active means hit-call score of the fitted dose curve at least 0.9, where 1 is the maximum; inactive means score below 0.9.
Mark one answer only. Choices: active, inactive

Example results:
C=CC(C)(CCC=C(C)C)OC(=O)C(C)C (stereo not drawn) :: inactive
OCCc1ccncc1 :: inactive
CC(C)c1ccc2cc(C(C)C)ccc2c1 :: active
CN(C)CCCN(C)C :: inactive
CCCCCC/C=C/C=O :: inactive

Inquiry: For O=C1CCCC1 , what call appears in the results of this test?
Reply text: inactive

Inquiry: For CCc1nccnc1C , what call appears in the results of this test?
Reply text: inactive

Inquiry: For O=C(Nc1ccccc1SSc1ccccc1NC(=O)c1ccccc1)c1ccccc1 , what call appears in the results of this test?
Reply text: inactive

Inquiry: For CC1(C)O[C@@H]2C[C@H]3[C@@H]4C[C@H](F)C5=CC(=O)CC[C@]5(C)[C@H]4[C@@H](O)C[C@]3(C)[C@]2(C(=O)CO)O1 , what call appears in the results of this test?
Reply text: inactive

Inquiry: For CCN(Cc1cccc(S(=O)(=O)O)c1)c1ccc(C(=C2C=CC(=[N+](CC)Cc3cccc(S(=O)(=O)[O-])c3)C=C2)c2ccccc2)cc1 , what call appears in the results of this test?
Reply text: inactive

Inquiry: For O=Nc1ccc(O)cc1 , what call appears in the results of this test?
Reply text: inactive

Inquiry: For O=C(O)Cc1c(Cl)ccc(Cl)c1Cl , what call appears in the results of this test?
Reply text: inactive

Inquiry: For COC(F)(F)C(F)(C(F)(F)F)C(F)(F)F , what call appears in the results of this test?
Reply text: inactive

----------
Assay: ATG_ISRE_CIS: Attagene CIS-FACTORIAL HepG2 Assay for human Interferon Regulatory Factor 1 (IRF1) binding to an Interferon-Stimulated Response Element (ISRE) (AID 2282948)
Details: HepG2 ISRE cis-reporter (Attagene), mRNA transcription readout; actives raise or lower the signal
Procedure: ATG_CIS is a cell-based, multiplexed-readout assay that uses HepG2, a human liver cell line, with measurements taken at 24 hours after chemical dosing in a 24-well plate.ATG_ISRE_CIS is one of 52 assay component(s) measured or calculated from the ATG_CIS assay. […] This assay endpoint, ATG_ISRE_CIS, was analyzed with bidirectional fitting relative to DMSO as the negative control and baseline of activity. […]
Active and inactive are the calls of the source. The calls were made as follows: active = hit-call score of the fitted dose curve at least 0.9, where 1 is the maximum; inactive = score below 0.9.
Mark one answer only. Choices: active, inactive

Inquiry: For C=C(C)C(=O)OCCO , what call appears in the results of this test?
Reply text: inactive

Inquiry: For O=C(Oc1ccccc1)c1ccc2ccccc2c1O , what call appears in the results of this test?
Reply text: inactive

Inquiry: For OC1CCCC1 , what call appears in the results of this test?
Reply text: inactive

Inquiry: For CCOC(=O)NNc1nncc2ccccc12 , what call appears in the results of this test?
Reply text: inactive

Inquiry: For C=C1C2CCC(C2)C1(C)C (stereo not drawn) , what call appears in the results of this test?
Reply text: inactive

Inquiry: For NC(CO)(CO)CO , what call appears in the results of this test?
Reply text: inactive

Inquiry: For NNC(=O)c1cccc(C(=O)NN)c1 , what call appears in the results of this test?
Reply text: inactive

Inquiry: For CCC(=O)Oc1ccc(/C(CC)=C(\CC)c2ccc(OC(=O)CC)cc2)cc1 , what call appears in the results of this test?
Reply text: active
